Give measured Human GLP-1 R activity (cAMP release), % activity with respect to control for each item. Keep answers brief.
measurement-target: Human GLP-1 receptor (Homo sapiens, UniProt P43220)
Construct: The full-length cDNA was cloned in pcDNA3.1(+); expressed in transfected cells
Sequence (P43220 24-463): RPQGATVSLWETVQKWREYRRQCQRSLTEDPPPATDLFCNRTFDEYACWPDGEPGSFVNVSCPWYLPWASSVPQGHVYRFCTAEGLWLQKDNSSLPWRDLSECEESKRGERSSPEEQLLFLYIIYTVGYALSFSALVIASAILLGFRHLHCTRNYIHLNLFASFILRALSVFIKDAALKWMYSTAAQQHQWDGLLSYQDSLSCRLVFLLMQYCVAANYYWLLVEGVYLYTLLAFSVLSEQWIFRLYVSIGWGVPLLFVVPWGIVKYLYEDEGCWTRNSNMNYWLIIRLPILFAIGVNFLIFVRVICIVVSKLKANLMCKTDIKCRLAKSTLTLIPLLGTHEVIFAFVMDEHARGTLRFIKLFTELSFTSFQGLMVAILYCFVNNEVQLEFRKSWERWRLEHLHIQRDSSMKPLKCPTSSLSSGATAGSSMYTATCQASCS
Type: cell-based
experimental-conditions: 10 μM test compound
Description: The novel peptidomimetics were screened for Human GLP-1 receptor (HGLP-1 R) agonist activity (in vitro), using the cAMP cell-based assay, in stably transfected CHO/human GLP1R cells. […] The trypsin was inactivated using Ham's F12 medium containing 10% NBCS and the cells were suspended in 2 ml of complete medium. […] Data is calculated as percent of control (Vehicle: water) and expressed as Mean±SD.

Problem: Using the record for CCc1cc(OC)ccc1-c1ccc(CC(NC(=O)[C@H](CC(=O)O)NC(=O)[C@H](CO)NC(=O)[C@@H](NC(=O)[C@H](Cc2ccccc2)NC(=O)[C@@H](NC(=O)CNC(=O)[C@H](CCC(N)=O)NC(=O)C(C)(C)NC(=O)[C@@H](N)Cc2c[nH]cn2)[C@@H](C)O)[C@@H](C)O)C(=O)NC(Cc2ccc(-c3ccccc3C(F)(F)F)cc2)C(N)=O)cc1 (single isomer, unassigned) , state its measured Human GLP-1 R activity (cAMP release), % activity with respect to control.
Solution: 99 ± 0.08%

Problem: Assign Human GLP-1 R activity (cAMP release), % activity with respect to control to the following record: CCc1cc(OC)ccc1-c1ccc(CC(NC(=O)[C@H](CC(=O)O)NC(=O)[C@H](CO)NC(=O)[C@@H](NC(=O)[C@H](Cc2ccccc2)NC(=O)[C@@H](NC(=O)CNC(=O)[C@H](CCC(N)=O)NC(=O)C(C)(C)NC(=O)[C@@H](N)Cc2c[nH]cn2)[C@@H](C)O)[C@@H](C)O)C(=O)NC(Cc2ccc(-c3ccccc3F)cc2)C(N)=O)cc1 (single isomer, unassigned)
Solution: 99 ± 0.03%

Problem: Determine from records and report Human GLP-1 R activity (cAMP release), % activity with respect to control for CCc1cc(OC)ccc1-c1ccc(CC(NC(=O)[C@H](CC(=O)O)NC(=O)[C@H](CO)NC(=O)[C@@H](NC(=O)[C@H](Cc2ccccc2)NC(=O)[C@@H](NC(=O)CNC(=O)[C@H](CCC(N)=O)NC(=O)C2(NC(=O)[C@@H](N)Cc3c[nH]cn3)CC2)[C@@H](C)O)[C@@H](C)O)C(=O)NC(Cc2ccc(-c3ccccc3F)cc2)C(N)=O)cc1 (single isomer, unassigned)
Solution: 99 ± 0.03%
